- test: Solubility in aqueous media
- Type: physicochemical
- experimentalConditions: pH 4, aqueous buffer, Solubility
valueKind: solubility (µg/mL)
Give just the number in µg/mL; leave the unit off.

Query: Entry `CC[C@@H]1C(=O)N(C)c2cnc(Nc3ccc(C(=O)N[C@H]4CC[C@H](N5CCN(CC6CC6)CC5)CC4)cc3OC)nc2N1C(C)C.Cl` : reported solubility = ?
Result: 7200

----------
- test: Solubility in aqueous media
- Type: physicochemical
- experimentalConditions: pH 2.2, aqueous buffer, Solubility
valueKind: solubility

Query: Could you share which solubility value was measured for `CC[C@@H]1C(=O)N(C)c2cnc(Nc3ccc(C(=O)N[C@H]4CC[C@H](N5CCN(CC6CC6)CC5)CC4)cc3OC)nc2N1C(C)C.Cl` ?
Result: > 10000 µg/mL

Just for reference, patent US8188086B2 is where these values come from.
